# System: CCRF-CEM
# assay.details: Tumor cell proliferation inhibition (CellTiter-Meiluncell Luminescent Cell Viability Assay), CCRF-CEM
# experimental.parameters: Homo sapiens, 96 h, read-out: inhibitory activity (IC50, nM) against tumor cells proliferation, CCRF-CEM
reported.metric: IC50

molecule="O=C1CCC(N2Cc3cc(CN4CCN(c5cccc(Br)c5)CC4)ccc3C2=O)C(=O)N1 (stereo not shown)" reported_metric=IC50 value_measured="1 to 5 nM"
molecule="Cc1ccsc1C1CCN(Cc2ccc3c(c2)CN(C2CCC(=O)NC2=O)C3=O)CC1 (stereo not shown)" reported_metric=IC50 value_measured="10 to 50 nM"
molecule="O=C1CCC(N2Cc3cc(CN4CCN(c5cccc(F)c5)CC4)ccc3C2=O)C(=O)N1 (stereo not shown)" reported_metric=IC50 value_measured="5 to 10 nM"
molecule="Cc1cscc1C1=CCN(Cc2ccc3c(c2)CN(C2CCC(=O)NC2=O)C3=O)CC1 (stereo not shown)" reported_metric=IC50 value_measured="< 1 nM"
